- Target Entity: T1, Human CD3eg linker (human)
- T1 construct: Single-chain construct; also called recombinant human CD3
- T1 chain: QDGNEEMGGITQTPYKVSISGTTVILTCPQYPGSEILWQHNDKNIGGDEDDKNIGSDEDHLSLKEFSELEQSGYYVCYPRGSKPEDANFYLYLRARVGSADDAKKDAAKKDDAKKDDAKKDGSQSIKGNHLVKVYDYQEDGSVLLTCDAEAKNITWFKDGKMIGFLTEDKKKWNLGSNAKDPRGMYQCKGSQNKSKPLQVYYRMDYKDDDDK
- Procedure Summary: SPR; fold vs parent H183/L072
Quantity: fold change of affinity (fold)
Field: numeric (fold). Do not append units.

Use the examples below as a reference point.
>>> numeric_readout("H183/L072 VL R54H (antibody, name in Kabat numbering, V domains shown) VH: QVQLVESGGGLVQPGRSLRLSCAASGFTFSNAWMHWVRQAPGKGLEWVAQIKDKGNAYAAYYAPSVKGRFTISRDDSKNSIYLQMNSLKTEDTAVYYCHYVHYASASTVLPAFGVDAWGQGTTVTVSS VL: DIVMTQSPLSLPVTPGEPASISCQASQELVHMNRNTYLHWYQQKPGQAPRLLIYKVSNHFPGVPDRFSGSGSGTDFTLKISRVEAEDVGVYYCAQGTSVPFTFGQGTKLEIK")
1.9
>>> numeric_readout("H183/L072 VL V51A (antibody, name in Kabat numbering, V domains shown) VH: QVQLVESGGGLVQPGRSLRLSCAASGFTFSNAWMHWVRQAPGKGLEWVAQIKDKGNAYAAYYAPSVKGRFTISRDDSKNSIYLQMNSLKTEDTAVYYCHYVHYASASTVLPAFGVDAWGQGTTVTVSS VL: DIVMTQSPLSLPVTPGEPASISCQASQELVHMNRNTYLHWYQQKPGQAPRLLIYKASNRFPGVPDRFSGSGSGTDFTLKISRVEAEDVGVYYCAQGTSVPFTFGQGTKLEIK")
0.6
>>> numeric_readout("H183/L072 VL R29A (antibody, name in Kabat numbering, V domains shown) VH: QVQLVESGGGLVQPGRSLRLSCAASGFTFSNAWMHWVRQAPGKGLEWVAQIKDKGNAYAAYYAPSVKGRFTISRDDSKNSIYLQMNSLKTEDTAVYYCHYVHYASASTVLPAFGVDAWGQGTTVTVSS VL: DIVMTQSPLSLPVTPGEPASISCQASQELVHMNANTYLHWYQQKPGQAPRLLIYKVSNRFPGVPDRFSGSGSGTDFTLKISRVEAEDVGVYYCAQGTSVPFTFGQGTKLEIK")
0.6
>>> numeric_readout("H183/L072 VL M27eA (antibody, name in Kabat numbering, V domains shown) VH: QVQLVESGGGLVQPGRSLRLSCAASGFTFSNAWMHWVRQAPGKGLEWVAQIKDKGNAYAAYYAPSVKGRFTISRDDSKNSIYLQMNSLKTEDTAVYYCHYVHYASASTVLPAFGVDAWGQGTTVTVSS VL: DIVMTQSPLSLPVTPGEPASISCQASQELVHANRNTYLHWYQQKPGQAPRLLIYKVSNRFPGVPDRFSGSGSGTDFTLKISRVEAEDVGVYYCAQGTSVPFTFGQGTKLEIK")
1.3

API: the following record is the query input.
Quick one: fold change of affinity of H183/L072 VL T97A (antibody, name in Kabat numbering, V domains shown) VH: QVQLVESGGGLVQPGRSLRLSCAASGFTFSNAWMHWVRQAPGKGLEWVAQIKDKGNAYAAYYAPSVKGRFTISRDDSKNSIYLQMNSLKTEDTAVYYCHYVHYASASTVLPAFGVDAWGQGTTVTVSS VL: DIVMTQSPLSLPVTPGEPASISCQASQELVHMNRNTYLHWYQQKPGQAPRLLIYKVSNRFPGVPDRFSGSGSGTDFTLKISRVEAEDVGVYYCAQGTSVPFAFGQGTKLEIK ? 0.8

This collection of values is drawn from patent US20210388087A1.
